Molecular target: CDK2/CycA2 kinase (Homo sapiens (Human), UniProt P24941)
Test: Determination of inhibitory activity against CDK2/CycA2 kinase
Format: biochemical
Conditions: 10 μM ATP
Experimental: The wells were set in duplicate, and a control well was set. […] The resulting mixture was left to react at room temperature for 2 h, and then 5 µL of EDTA was added to terminate the reaction, followed by addition of 5 μL of a detection antibody (manufacturer: PerkinElmer, concentration: 8 nM). The mixture was incubated at room temperature for 1 h.
property.measured: IC50

Query IC50 for CC(C)NC(=O)O[C@@H]1CC[C@H](c2cc(Nc3ccc(NS(C)(=O)=O)c(F)n3)n[nH]2)C1 < 10 nM

Query IC50 for CC(C)NC(=O)O[C@H]1CC[C@@H](c2cc(Nc3ccc(S(N)(=O)=O)cc3F)n[nH]2)C1 < 10 nM

Query IC50 for CNS(=O)(=O)c1ccc(Nc2cc(C3CCC(OC(=O)NC(C)C)C3)[nH]n2)c(F)c1 (stereo not drawn) < 10 nM

Query IC50 for CNC(=O)O[C@@H]1CC[C@H](c2cc(Nc3ccc4c(c3)CS(=O)(=O)C4)n[nH]2)C1 < 10 nM

Query IC50 for CC(C)NC(=O)O[C@@H]1CC[C@H](c2cc(Nc3ccc(NS(C)(=O)=O)cn3)n[nH]2)C1 < 10 nM

---

Target: CDK2 CycE1 kinase (Homo sapiens (Human), UniProt P24941)
Assay: Determination of inhibitory activity against CDK2 CycE1 kinase
Type: biochemical
Settings: 10 μM ATP
Description: CDK2 CycE1 kinase solution (concentration: 0.015 ng/μL) was added to assay wells at 6 μL/well, and different compounds dissolved in DMSO were added to the assay wells separately using a nanoliter pipettor, such that the final concentrations of the compounds were 300 nM to 0.07 nM. The wells were set in duplicate, and a control well was set. […]
Form field: IC50 (one value per entry).

Examples with their reported IC50 follow.
entry_smiles=CC(C)NC(=O)O[C@@H]1CC[C@H](c2cc(Nc3ccc(S(N)(=O)=O)cc3)n[nH]2)C1 result="< 10 nM"
entry_smiles=CC(C)NC(=O)O[C@@H]1CC[C@H](c2cc(Nc3ccc(NS(C)(=O)=O)cc3)n[nH]2)C1 result="< 10 nM"
entry_smiles=COc1nc(Nc2cc([C@H]3CC[C@@H](OC(=O)NC(C)C)C3)[nH]n2)ccc1NS(C)(=O)=O result="< 10 nM"

Consider the additional compound presented here.
Query IC50 for COc1cc(Nc2cc([C@H]3CC[C@@H](OC(=O)NC(C)C)C3)[nH]n2)ccc1NS(C)(=O)=O < 10 nM

---

Biological target: CDK2 CycE1 kinase (Homo sapiens (Human))
Experiment: Determination of inhibitory activity against CDK2 CycE1 kinase
Assay type: biochemical
Conditions: 10 μM ATP
Form field: IC50 (one value per entry).

Examples with their reported IC50 follow.
molecule=CC(C)NC(=O)O[C@@H]1CC[C@H](c2cc(Nc3ccc(N(C)S(C)(=O)=O)cn3)n[nH]2)C1 result="10 to 50 nM"
molecule=CC(C)NC(=O)O[C@@H]1CC[C@H](c2cc(Nc3ccc(NS(C)(=O)=O)cc3F)n[nH]2)C1 result="< 10 nM"
molecule=CC(C)NC(=O)O[C@@H]1CC[C@H](c2cc(Nc3ccc(P(C)(C)=O)cc3)n[nH]2)C1 result="10 to 50 nM"
molecule=CC(C)NC(=O)O[C@@H]1CC[C@H](c2cc(Nc3ccc(NS(=O)(=O)C4CC4)cn3)n[nH]2)C1 result="< 10 nM"
molecule="CC(C)NC(=O)OC1CCC(c2cc(Nc3ncc(NS(C)(=O)=O)cn3)n[nH]2)C1 (stereo not shown)" result="< 10 nM"
molecule=CC(C)NC(=O)O[C@@H]1CC[C@H](c2cc(Nc3ccc(NS(C)(=O)=O)c(OC(F)(F)F)n3)n[nH]2)C1 result="< 10 nM"

Query IC50 for CC(=O)N(C)c1ccc(Nc2cc([C@H]3CC[C@@H](OC(=O)NC(C)C)C3)[nH]n2)nc1 10 to 50 nM
